From: ChEMBL document CHEMBL1150918

- Tested on: SK-OV-3
- Assay Explanation: Growth inhibition of human SKOV3 cells after 2 days by SRB assay
- Type: functional, cell-based
- Experimental Context: SK-OV-3, 48 h
Reported Metric: IC50

Known results for compounds:
Supply recorded IC50 for CCCCCCCCCCCCCc1cc(O)cc(O)c1 here.
> 50 µg/mL

Look up IC50 of CCCCCC/C=C\CCCCCCCCCc1cccc(O)c1C(=O)O and report it.
> 50 µg/mL

Give a short answer stating reported IC50 for CCCCCCCCCCCCCc1cccc(O)c1 .
> 50 µg/mL

Provide IC50 value for the following compound: CCCCCC/C=C\CCCCCCCc1cccc(O)c1C(=O)O
> 50 µg/mL

Others:
Fill in reported IC50 for this entry: CCCCCCCCCCCCCc1cccc(O)c1C(=O)O
20.4 µg/mL
